// data source = the supplement of paper PMC10201428

B1: library; a variant is named by its letters at N, in order (parent)
chain: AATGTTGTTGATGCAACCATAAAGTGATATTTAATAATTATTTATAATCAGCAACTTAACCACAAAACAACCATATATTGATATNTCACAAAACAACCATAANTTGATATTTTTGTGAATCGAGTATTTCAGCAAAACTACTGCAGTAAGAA

variants of: B1; experiment: relative integration efficiency (T-LR orientation) vs wild-type transposon end (log2 (normalized fold change)); transposon end mutated: left end; higher = more efficient transposition; conditions: with VchCAST RNA-guided transposition machinery (E. coli BL21(DE3) host, lacZ target)
PROPERTY NAME: relative integration efficiency (log2)

{"MUTATION CODE": "TA G24A T30A T76A A77G C87T A96C T112G T113C", "relative integration efficiency (log2)": -0.263}
{"MUTATION CODE": "CG T78A T79A", "relative integration efficiency (log2)": -0.257}
{"MUTATION CODE": "CG T31G T32G", "relative integration efficiency (log2)": -0.16}
{"MUTATION CODE": "CG A29G", "relative integration efficiency (log2)": -0.232}
{"MUTATION CODE": "CG A119T T120A", "relative integration efficiency (log2)": -0.0736}
{"MUTATION CODE": "CG A33T C87G T113A", "relative integration efficiency (log2)": 0.0222}

QUERY: Value lookup for relative integration efficiency (log2); key = TA A23G G24T A33T T76A T78G C87A T104G T113A
RESULT: 0.453

QUERY: Value lookup for relative integration efficiency (log2); key = TA T76A T78G C87A T104G T113A
RESULT: -0.127

QUERY: Value lookup for relative integration efficiency (log2); key = CG T35A A36T
RESULT: 0.24

QUERY: Value lookup for relative integration efficiency (log2); key = CG T39C A40T T41G T43G A46T A47G C49T G51T A54C C55A
RESULT: -4.29

QUERY: Value lookup for relative integration efficiency (log2); key = CG A107C T108G
RESULT: -0.997

QUERY: Value lookup for relative integration efficiency (log2); key = CG T105G G106T
RESULT: -0.649

QUERY: Value lookup for relative integration efficiency (log2); key = CG T48A C49G A50T G51C C52G A53T A54T C55G T56A T57A A58T
RESULT: -2.96

QUERY: Value lookup for relative integration efficiency (log2); key = AG T31G T32G A33C T86G C87A T111G T112G T113G
RESULT: -1.26

QUERY: Value lookup for relative integration efficiency (log2); key = CG G51C C52G
RESULT: -0.162

QUERY: Value lookup for relative integration efficiency (log2); key = CG T30A T31C T32A A77C T86G
RESULT: 0.153

QUERY: Value lookup for relative integration efficiency (log2); key = CG A22C A23C G24T T25G
RESULT: -2.32

QUERY: Value lookup for relative integration efficiency (log2); key = CG A107T
RESULT: -0.794

QUERY: Value lookup for relative integration efficiency (log2); key = CG T76G
RESULT: -0.699

QUERY: Value lookup for relative integration efficiency (log2); key = CA A16C G24T T30A A96C T112G T113C
RESULT: -0.699
